IC50 for assorted compounds
tested system: Glucose-6-phosphate 1-dehydrogenase (Homo sapiens, UniProt P11413)
Sequence (P11413 whole entry): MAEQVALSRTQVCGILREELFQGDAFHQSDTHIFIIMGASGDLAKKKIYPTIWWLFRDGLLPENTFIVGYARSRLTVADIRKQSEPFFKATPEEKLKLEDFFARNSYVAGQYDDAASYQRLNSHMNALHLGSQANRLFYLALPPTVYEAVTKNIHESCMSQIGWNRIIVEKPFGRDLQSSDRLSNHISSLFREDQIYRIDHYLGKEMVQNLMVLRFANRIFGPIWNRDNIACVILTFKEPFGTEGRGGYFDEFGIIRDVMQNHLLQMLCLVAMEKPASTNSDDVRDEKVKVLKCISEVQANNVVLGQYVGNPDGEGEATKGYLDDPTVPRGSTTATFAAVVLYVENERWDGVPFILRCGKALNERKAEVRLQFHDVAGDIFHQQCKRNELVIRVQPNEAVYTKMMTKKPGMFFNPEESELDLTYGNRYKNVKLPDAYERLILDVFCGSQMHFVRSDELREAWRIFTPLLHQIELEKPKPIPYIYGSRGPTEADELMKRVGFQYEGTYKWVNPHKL
test description: human G6PD enzyme inhibitors, dose response, selectivity assay for P. falciparum G6PD inhibitor project, biochemical, fluorescence (AID 504792)
Type: functional
Activity calls are given as the source filed them.

The cases that follow already have their IC50 on record.
INSERT INTO measurements (compound, experimental_endpoint, result) VALUES
  ('CC1(OC(=O)C2CCCC2)C(=O)C=C2C=C(c3ccsc3)N(CC3CC3)C=C2C1=O (stereo not given)', 'IC50', '64.3 µM (inactive)'),
  ('COc1ccc(N2CSC3=C(C#N)C(c4cc(OC)c(OC)cc4OC)CC(=O)N3C2)c(OC)c1 (stereo not given)', 'IC50', '42.5 µM (inactive)'),
  ('CC1(C)CN(c2ccccc2)N(C(=O)c2ccc(C#N)cc2)C1=O', 'IC50', '> 80 µM (inactive)'),
  ('COc1cc(/C=C2\SC(c3ccc(C)cc3)=NC2=O)cc(OC)c1O', 'IC50', '63.1 µM (inactive)');

Now turn to the next compound.
Incoming: Look up IC50 with Glucose-6-phosphate 1-dehydrogenase (Homo sapiens, UniProt P11413) for this compound: `Cn1c(=O)c2c(nc(S)n2CCCc2ccccc2)n(C)c1=O`
Outgoing: 60.7 µM (inactive)

----------
AC50 values for the compounds below.
tested system: Replicative DNA helicase DnaB (Mycobacterium tuberculosis, UniProt P9WMR3)
Sequence (P9WMR3 whole entry): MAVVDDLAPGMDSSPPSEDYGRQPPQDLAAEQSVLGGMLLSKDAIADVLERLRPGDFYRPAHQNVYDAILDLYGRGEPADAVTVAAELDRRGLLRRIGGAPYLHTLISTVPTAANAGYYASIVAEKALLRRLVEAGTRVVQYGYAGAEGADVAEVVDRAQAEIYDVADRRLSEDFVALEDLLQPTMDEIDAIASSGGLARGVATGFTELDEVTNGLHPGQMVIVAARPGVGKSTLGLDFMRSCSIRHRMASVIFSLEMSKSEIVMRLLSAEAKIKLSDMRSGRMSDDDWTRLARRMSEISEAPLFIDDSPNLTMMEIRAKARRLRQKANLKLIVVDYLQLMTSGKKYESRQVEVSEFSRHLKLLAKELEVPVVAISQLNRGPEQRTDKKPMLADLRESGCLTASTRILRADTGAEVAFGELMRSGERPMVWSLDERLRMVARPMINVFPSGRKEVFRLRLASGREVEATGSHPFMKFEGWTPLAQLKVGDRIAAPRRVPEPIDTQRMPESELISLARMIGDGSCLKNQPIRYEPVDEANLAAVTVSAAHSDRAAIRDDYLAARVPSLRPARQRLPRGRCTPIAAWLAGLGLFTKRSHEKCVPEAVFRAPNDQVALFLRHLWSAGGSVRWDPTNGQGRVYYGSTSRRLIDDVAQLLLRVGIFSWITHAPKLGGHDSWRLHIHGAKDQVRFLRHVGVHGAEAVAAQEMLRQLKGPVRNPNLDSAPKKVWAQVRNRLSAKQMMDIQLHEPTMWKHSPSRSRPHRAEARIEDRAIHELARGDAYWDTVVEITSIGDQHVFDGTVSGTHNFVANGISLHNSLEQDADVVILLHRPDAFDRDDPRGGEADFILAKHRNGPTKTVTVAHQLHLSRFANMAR
test description: DnaB intein splicing inhibitors, dose response, biochemical, cell-free fluorescence (AID 449749)
Format: functional
Active and inactive are the calls of the source.

Example entries and their recorded answers appear below.
INSERT INTO assay_data (compound, result) VALUES
  ('Oc1nnc(Sc2ncnc3sccc23)n1CCc1ccccc1', '> 380 µM (inactive)'),
  ('O=c1c(Cl)c(Cl)cnn1Cc1ccc(F)cc1', '39.5 µM (active)'),
  ('CCOC(=O)/C(C#N)=C1/SC(C)C(=O)N1c1ccc(Br)cc1 (stereo not given)', '21 µM (active)'),
  ('CCC(C)N(CC(=O)Nc1cccc(C)c1C)C(=O)CCl (stereo not given)', '57.3 µM (active)');

Incoming: I'm curious: which AC50 was measured for `CC(C)(C)c1cnnn1-c1ccc(C(=O)CCl)cc1` tested on Replicative DNA helicase DnaB (Mycobacterium tuberculosis, UniProt P9WMR3)?
Outgoing: 4.17 µM (active)
